- Test system: various tumor cell lines, derived from seven cancer types
readout.type: log10 of GI50 (log10 of the value in µM)
# values: log10(GI50), units µM

Some entries whose results are on file:
compound	measurement.target	measured.value
CC1(C)O[C@@H]2[C@@H](OCCCc3ccccc3)O[C@H](CN3CCCC3)[C@@H]2O1 [XXV]	various tumor cell lines, derived from seven cancer types	1.98
CCCCCCCCCNC[C@H]1O[C@H](OCCCc2ccccc2)[C@H]2OC(C)(C)O[C@H]21 [XXIX]	various tumor cell lines, derived from seven cancer types	1.51

Given the compound CCCCCCCCCOCCCO[C@H]1O[C@H](COCCN2CCCC2)[C@@H]2OC(C)(C)O[C@H]12 [V] , what is its reported log10 of GI50?
0.75

Thanks! And CN(C)CCCOC[C@H]1O[C@H](OCCCc2ccccc2)[C@H]2OC(C)(C)O[C@H]21 [X] ?
1.96

What do you get for CCCCCCCCCOCCCO[C@H]1O[C@H](CN2CCCC2)[C@@H]2OC(C)(C)O[C@H]12 [XVI] ?
0.71
